Biological target: T1, TRX-APRIL (mouse, UniProt Q9D777 104-241)
T1 chain: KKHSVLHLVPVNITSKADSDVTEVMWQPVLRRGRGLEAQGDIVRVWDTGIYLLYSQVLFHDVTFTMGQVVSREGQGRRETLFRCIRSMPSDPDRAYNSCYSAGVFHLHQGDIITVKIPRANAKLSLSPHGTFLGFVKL
Assay: competitive SPR
measurement.label: IC50 (nM)
Give bare numbers, in nM.

Fill in IC50 for record GSPWSLSCRKEQGKFYDHLLRDCISCASICGQHPKQCAYFCENKLR (receptor) [TACI_d2 (second cysteine-rich domain, CRD2, residues 68-109 of human TACI)]
3.2
